target: full-length beta-Catenin (Uniprot ID P35222) (Homo sapiens (Human)) (UniProt P35222); experiment: fluorescence polarization competition; full-length beta-catenin + 5FAM-TCF4 10-53 probe
Sequence (P35222 2-781 limits assumed): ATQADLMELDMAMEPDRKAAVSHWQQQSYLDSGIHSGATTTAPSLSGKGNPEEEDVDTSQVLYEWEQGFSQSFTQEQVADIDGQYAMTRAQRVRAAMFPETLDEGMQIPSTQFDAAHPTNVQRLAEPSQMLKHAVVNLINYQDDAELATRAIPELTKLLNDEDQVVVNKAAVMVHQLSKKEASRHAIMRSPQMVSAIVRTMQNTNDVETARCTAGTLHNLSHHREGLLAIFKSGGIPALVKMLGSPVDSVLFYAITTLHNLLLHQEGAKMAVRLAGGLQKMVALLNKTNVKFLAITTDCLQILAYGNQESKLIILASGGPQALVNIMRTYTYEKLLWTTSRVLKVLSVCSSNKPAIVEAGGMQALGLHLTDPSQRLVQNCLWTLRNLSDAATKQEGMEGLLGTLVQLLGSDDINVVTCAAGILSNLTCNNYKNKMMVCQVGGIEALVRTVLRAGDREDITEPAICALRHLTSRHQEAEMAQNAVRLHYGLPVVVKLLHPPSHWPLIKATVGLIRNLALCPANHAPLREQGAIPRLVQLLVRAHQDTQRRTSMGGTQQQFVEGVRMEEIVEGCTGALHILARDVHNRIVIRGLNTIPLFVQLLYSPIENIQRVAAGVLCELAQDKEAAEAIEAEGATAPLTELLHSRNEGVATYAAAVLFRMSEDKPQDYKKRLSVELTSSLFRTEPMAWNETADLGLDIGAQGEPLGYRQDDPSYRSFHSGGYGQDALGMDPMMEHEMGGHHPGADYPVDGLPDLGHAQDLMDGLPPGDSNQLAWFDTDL
Starred links: 1 amine or outer side, 2 acyl side, 3 side chain; linkers in the order of their positions; H or OH if unused. Positions of bridges follow the written chain, without caps; N, C: chain ends. Non-standard residues stand in square brackets, D forms with d. Primed or numbered codes have the meaning given here. B5(4) = 2,2-bis(4-pentenyl)glycine = 2-amino-2-(pent-4-en-1-yl)hept-6-enoic acid (stitching residue), C=CCCCC(CCCC=C)(N[*:1])C(=O)[*:2]; PyrS2 = (S)-3-amino-1-((pent-4-en-1-yloxy)carbonyl)pyrrolidine-3-carboxylic acid, C=CCCCOC(=O)N1CC[C@@](N[*:1])(C(=O)[*:2])C1; Bta = N[C@@H](Cc1csc2ccccc12)C(=O)O; αAllylPro = C=CC[C@@]1(C(=O)O)CCCN1; tBuAla = CC(C)(C)C[C@H](N)C(=O)O; 3Thi = N[C@@H](Cc1ccsc1)C(=O)O; Thr(ol) = C[C@@H](O)[C@H](N)CO
Examples of binders with documented IC50 follow.

{"Binder": "Ac-[αAllylPro]N[tBuAla][B5(4)]DDAAFL[PyrS2][3Thi][Bta][Thr(ol)] (staple 1-4, 4-11) [I-1304]", "IC50 [nM]": 31}
{"Binder": "Ac-[αAllylPro]D[tBuAla][B5(4)]DDAAFF[PyrS2][3Thi][Bta][Thr(ol)] (staple 1-4, 4-11) [I-1303]", "IC50 [nM]": 86}
{"Binder": "Ac-[αAllylPro]D[tBuAla][B5(4)]DDAAFL[PyrS2][3Thi][Bta][Thr(ol)] (staple 1-4, 4-11) [I-1302]", "IC50 [nM]": 45}
